biological target: Tubulin beta chain (Bos taurus, UniProt Q6B856); assay: Inhibition of bovine tubulin polymerization
Sequence (Q6B856 whole entry): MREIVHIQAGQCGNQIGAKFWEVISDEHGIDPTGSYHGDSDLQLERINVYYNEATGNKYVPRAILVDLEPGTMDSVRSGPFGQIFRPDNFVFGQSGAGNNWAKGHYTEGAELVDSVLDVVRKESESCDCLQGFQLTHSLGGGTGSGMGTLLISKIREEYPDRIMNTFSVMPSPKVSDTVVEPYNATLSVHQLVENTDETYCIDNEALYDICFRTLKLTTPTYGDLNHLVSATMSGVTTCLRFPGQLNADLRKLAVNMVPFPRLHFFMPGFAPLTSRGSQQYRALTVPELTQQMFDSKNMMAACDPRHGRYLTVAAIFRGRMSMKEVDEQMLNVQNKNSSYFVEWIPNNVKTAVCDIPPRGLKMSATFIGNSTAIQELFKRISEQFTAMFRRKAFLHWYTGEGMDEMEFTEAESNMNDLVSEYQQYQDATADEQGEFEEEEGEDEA
pIC50: −log10 of the molar value.
Parameter threshold = 5. Response is Met when pIC50 meets or exceeds it, else Not met.

Consider the following illustrative entries.
INSERT INTO assay_data (compound_structure_string, answer_label) VALUES
  ('COc1cccc(-c2cc(O)c3c(C)cc(C)nc3n2)c1', 'Met'),
  ('Cc1cnc2nc(-c3ccc(Cl)cc3)cc(O)c2c1', 'Met'),
  ('Cc1ccnc2nc(-c3ccc(Cl)cc3)cc(O)c12', 'Met'),
  ('COc1ccc(-c2cc(O)c3c(C)cc(C)nc3n2)cc1', 'Not met');

Prompt line: Is it the case that "COc1ccccc1-c1cc(O)c2ccc(C)nc2n1" has pIC50 reaching or exceeding 5?
Response line: Not met

Prompt line: Exam item: decide whether the reported pIC50 for "Oc1cc(-c2ccc(F)cc2)nc2ncc(Cl)cc12" is at least 5.
Response line: Not met

Prompt line: Is pIC50 at least 5? Consider "Cc1ccc(-c2cc(O)c3cc(C)cnc3n2)cc1"
Response line: Met
